Ref: patent US11999727B2

# tgt: PRMT5 (Homo sapiens, UniProt O14744)
# Construct: purchased Viva (custom protein)
# Sequence (O14744 whole entry): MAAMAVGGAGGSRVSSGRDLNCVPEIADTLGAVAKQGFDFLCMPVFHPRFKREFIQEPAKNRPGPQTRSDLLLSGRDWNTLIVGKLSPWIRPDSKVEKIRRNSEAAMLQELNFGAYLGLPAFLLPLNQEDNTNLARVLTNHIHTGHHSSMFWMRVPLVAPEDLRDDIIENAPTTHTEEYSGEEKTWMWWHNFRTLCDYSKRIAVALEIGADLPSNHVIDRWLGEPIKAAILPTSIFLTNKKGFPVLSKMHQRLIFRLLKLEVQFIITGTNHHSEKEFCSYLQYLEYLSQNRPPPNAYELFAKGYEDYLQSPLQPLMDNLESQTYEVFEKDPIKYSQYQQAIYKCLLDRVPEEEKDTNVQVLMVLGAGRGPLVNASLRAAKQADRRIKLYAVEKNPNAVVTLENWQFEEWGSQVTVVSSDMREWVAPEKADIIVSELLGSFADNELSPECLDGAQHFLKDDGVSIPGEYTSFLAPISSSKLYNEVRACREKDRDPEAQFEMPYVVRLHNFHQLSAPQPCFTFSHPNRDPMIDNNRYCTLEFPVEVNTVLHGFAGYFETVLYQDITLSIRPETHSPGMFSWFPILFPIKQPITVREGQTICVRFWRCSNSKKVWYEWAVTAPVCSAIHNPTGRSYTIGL
# Sequence (Q9BQA1 whole entry partner): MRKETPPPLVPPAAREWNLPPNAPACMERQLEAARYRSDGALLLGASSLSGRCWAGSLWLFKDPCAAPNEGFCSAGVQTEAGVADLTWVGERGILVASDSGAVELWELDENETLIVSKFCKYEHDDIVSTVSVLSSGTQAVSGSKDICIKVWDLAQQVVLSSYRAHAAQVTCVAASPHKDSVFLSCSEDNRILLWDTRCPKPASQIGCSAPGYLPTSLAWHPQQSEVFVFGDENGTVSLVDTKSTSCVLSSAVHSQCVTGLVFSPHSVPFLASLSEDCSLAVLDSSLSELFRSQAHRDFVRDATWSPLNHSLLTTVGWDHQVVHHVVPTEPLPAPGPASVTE
# method-description: PRMT5 biochemical IC50 assay with MTA as cofactor
# setup-conditions: PRMT5, MTA as cofactor; read-out: MTA IC50
# IC50 per record follows

The cases that follow already have their IC50 on record.
[[record]]
molecule = "CCOc1ncc(NC(=O)C(=O)N2C[C@@H](C)CC[C@@H]2c2ccccc2)cc1C(N)=O (single isomer, unassigned) [Compound 764]"
result = "< 50 nM"

[[record]]
molecule = "CCc1cc(NC(=O)C(=O)N2C[C@@H](C)CC[C@@H]2c2ccc3sc([C@H]4CCCN(C)C4)nc3c2)cnc1N"
result = "< 50 nM"

[[record]]
molecule = "Cc1cc(NC(=O)C(=O)N2C[C@@H](C)CC[C@@H]2c2ccc(NCC(F)(F)F)cc2)cnc1N (single isomer, unassigned)"
result = "> 500 nM"


Given the entry CC(=O)N1CCC([C@@H]2CC[C@@H](C)CN2C(=O)C(=O)Nc2cnc(N)c(C)c2)CC1 (racemic) , report its measured IC50.
50 to 500 nM

Same question for COc1ncc(NC(=O)C(=O)N2C[C@@H](C)CC[C@@H]2c2ccc3sc(C4(CN(C)C)COC4)nc3c2)cc1C(N)=O please.
< 50 nM

Same question for CCc1cc(NC(=O)C(=O)N2C[C@@H](C)CC[C@@H]2c2ccc3sc([C@@H]4CN(C)CCO4)nc3c2)cnc1N please.
< 50 nM

---

# tgt: PRMT5 (Homo sapiens, UniProt O14744)
# Construct: purchased Viva (custom protein)
# method-description: PRMT5 biochemical IC50 assay with SAM as cofactor
# setup-conditions: PRMT5, SAM as cofactor; read-out: SAM IC50
measurement-label: IC50

The cases that follow already have their IC50 on record.
[[record]]
compound = "CCc1cc(NC(=O)C(=O)N2C[C@@H](C)CC[C@@H]2c2ccc3sc([C@@H](C)CN(C)C)nc3c2)cnc1N"
measurement_label = "IC50"
result = "< 50 nM"

[[record]]
compound = "N#C[C@H]1CCN(C(=O)C(=O)Nc2cncc(C(N)=O)c2)[C@@H](c2ccccc2)C1 (single isomer, unassigned)"
measurement_label = "IC50"
result = "50 to 500 nM"

[[record]]
compound = "Cc1nc2cc([C@@H]3CC[C@@H](C)CN3C(=O)C(=O)Nc3cnc(N)c(C)c3)ccc2[nH]1 (single isomer, unassigned)"
measurement_label = "IC50"
result = "> 500 nM"

[[record]]
compound = "C[C@@H]1CC[C@@H](c2ccc(F)c(C(F)(F)F)c2)N(C(=O)C(=O)Nc2cncc(C(N)=O)c2)C1 (racemic)"
measurement_label = "IC50"
result = "50 to 500 nM"


Given the entry C[C@@H]1CC[C@@H](c2cc3[nH]ncc3s2)N(C(=O)C(=O)Nc2cncc(C(N)=O)c2)C1 (single isomer, unassigned) , report its measured IC50.
> 500 nM

Same question for CCc1cc(NC(=O)C(=O)N2C[C@H](C)CC[C@H]2c2ccc(N3CCOC4(CN(C)C4)C3)cc2)cnc1N (single isomer, unassigned) please.
> 500 nM

Same question for CC(=O)Nc1ccc([C@H]2CC[C@H](C)CN2C(=O)C(=O)Nc2cncc(C(N)=O)c2)cn1 (single isomer, unassigned) please.
> 500 nM

Same question for [H][C@]1([C@]2([H])C[C@@]3(C[C@H](O)C3)C2)CC[C@H](C)CN1C(=O)C(=O)Nc1cnc(N)c(C)c1 (single isomer, unassigned) please.
50 to 500 nM

Same question for C[C@@H]1CC[C@@H](c2ccccc2)N(C(=O)C(=O)Nc2cncc(C(N)=O)c2)[C@@H]1C (single isomer, unassigned) [Compound 435] please.
> 500 nM

Same question for COc1ncc(NC(=O)C(=O)N2C[C@@H](C)CC[C@@H]2c2ccc(F)cc2)cc1C(F)F please.
> 500 nM

Same question for C[C@H]1CC[C@H](c2cc[nH]n2)N(C(=O)C(=O)Nc2cncc(C(N)=O)c2)C1 (single isomer, unassigned) please.
> 500 nM

Same question for Cc1cc(NC(=O)C(=O)N2C[C@H](C)C(F)(F)C[C@H]2c2ccccc2)cnc1N (single isomer, unassigned) please.
< 50 nM
